Listed next: entries and their corresponding pIC50.
- Test system: NCI-H441;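 also: growth inhibition of NCI-H441 cells, read out with a cell viability assay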
- assay comment: cells
- Type: functional, cell-based
- condition summary: Homo sapiens
- Description: SANGER: Inhibition of human NCI-H441 cell growth in a cell viability assay.
pIC50: −log10 of the molar value.

Here is how some molecules turned out for pIC50.
>>> value("Cc1cnc(-c2cnc(NCCNc3ccc(C#N)cn3)nc2-c2ccc(Cl)cc2Cl)[nH]1 [LADUVIGLUSIB]")
"< 5.59"
>>> value("CC(=O)O[C@@H]1[C@@H](OC(C)=O)[C@@H](O)[C@H](Oc2c(-c3ccc(O)cc3)oc3cc(O)cc(O)c3c2=O)O[C@H]1C")
"< 5.00"
>>> value("Cc1ccc(Nc2nccc(N(C)c3ccc4c(C)n(C)nc4c3)n2)cc1S(N)(=O)=O [PAZOPANIB]")
"< 5.10"
>>> value("CCC1=C[C@@H]2CN(C1)Cc1c([nH]c3ccccc13)[C@@](C(=O)OC)(c1cc3c(cc1OC)N(C)[C@H]1[C@@](O)(C(=O)OC)[C@H](OC(C)=O)[C@]4(CC)C=CCN5CC[C@]31[C@@H]54)C2 [VINORELBINE]")
7.48
>>> value("Cc1cc([C@@H](C)Nc2ccccc2C(=O)O)c2nc(N3CCOCC3)cc(=O)n2c1 [AZD-6482]")
"< 5.29"
>>> value("Nc1ccn([C@@H]2O[C@H](CO)[C@@H](O)[C@@H]2O)c(=O)n1 [CYTARABINE]")
"< 5.70"
>>> value("CCOc1nc(NC(=O)Cc2cc(OC)ccc2OC)cc(N)c1C#N")
"< 5.00"
>>> value("C[C@]1(O)C[C@@H](c2nc(-c3ccc4ccc(-c5ccccc5)nc4c3)c3c(N)nccn32)C1 [LINSITINIB]")
"< 5.59"
>>> value("Cn1cc(C2=C(c3ccc(Cl)cc3Cl)C(=O)NC2=O)c2ccccc21 [SB-216763]")
"< 5.00"
>>> value("C=CCNC1=C2C[C@@H](C)C[C@H](OC)[C@H](O)[C@@H](C)/C=C(\\C)[C@H](OC(N)=O)[C@@H](OC)/C=C\\C=C(/C)C(=O)NC(=CC1=O)C2=O [TANESPIMYCIN]")
"< 6.00"

# get_value(readout= pIC50, system= NCI-H441) for O=C(NOCC1CC1)c1ccc(F)c(F)c1Nc1ccc(I)cc1Cl [CI-1040] < 5.00

# get_value(readout= pIC50, system= NCI-H441) for CC(=O)O[C@@]12CO[C@@H]1C[C@H](O)[C@@]1(C)C(=O)[C@H](O)C3=C(C)[C@@H](OC(=O)[C@H](O)[C@@H](NC(=O)OC(C)(C)C)c4ccccc4)C[C@@](O)([C@@H](OC(=O)c4ccccc4)[C@H]21)C3(C)C [DOCETAXEL] < 8.00
